PROTOCOL: Liver microsome metabolic stability test (human)
Assay type: in vitro ADME
EXPERIMENTAL_CONDITIONS: liver microsomes, read-out: CLint (μL/min/mg) Human
A collection of molecules and their measured microsomal CLint
Quick note: give the figure in µL/min/mg, leave out the unit.

Solved entries (count: 3):
| MOLECULE | RESULT_UNITS | microsomal CLint |
| --- | --- | --- |
| Nc1nccn2c(C3CCC(CO)OC3)nc(-c3ccc(Oc4ccccc4)cc3)c12 (stereo not shown) [Example 16] | µL/min/mg | 36.9 |
| Nc1nccn2c(C3CCC(CO)OC3)nc(-c3ccc(C(=O)c4ccccc4)cc3)c12 (stereo not shown) [Example 26] | µL/min/mg | 31.1 |
| Nc1nccn2c(C3CCC(CO)OC3)nc(-c3ccc(Oc4cccc(Cl)c4F)cc3)c12 (stereo not shown) [Example 9] | µL/min/mg | 48.4 |

Consider now this further molecule.
For the molecule Nc1nccn2c(C3CCC(CO)OC3)nc(-c3ccc(Oc4cccc(C(F)(F)F)c4F)cc3)c12 (stereo not shown) [Example 19] , what microsomal CLint is on record?
47.1

###

Measured concentration at 4 h by item
PROTOCOL: Blood-brain barrier permeability test, oral, SD rats
Assay type: in vivo
EXPERIMENTAL_CONDITIONS: rat, plasma, oral 10 mg/kg single dose, time point 4 h, read-out: Plasma drug concentration
Provide the measurement as a number trailed by its unit.

| COMPOUND | OBSERVED_MEASUREMENT |
| --- | --- |
| CC#CC(=O)N1CC[C@@H](n2c(=O)n(-c3ccc(Oc4ccccc4)cc3)c3c(N)ncnc32)C1 [Tirabrutinib, reference compound] | 226 ng/mL |
| Nc1nccn2c(C34CCC(CO)(CC3)OC4)nc(-c3ccc(C(F)(F)c4ccccc4)cc3)c12 | 1260 ng/mL |
| Nc1nccn2c(C34CCC(CO)(CC3)OC4)nc(-c3ccc(C(F)(F)c4ccccc4F)cc3)c12 | 1710 ng/mL |
| Cc1cc(Nc2ncnc3ccc(NC4=NC(C)(C)CO4)cc23)ccc1Oc1ccn2ncnc2c1 [Tucatinib, reference compound] | 1900 ng/mL |
| Nc1nccn2c(C3CCC(CO)OC3)nc(-c3ccc(C(F)(F)c4ccccc4)cc3)c12 (single isomer, unassigned) [Example 111-P1] | 1340 ng/mL |
| Nc1nccn2c(C34CCC(CO)(CC3)OC4)nc(-c3ccc(C(F)(F)c4ccccc4Cl)cc3)c12 | 1060 ng/mL |

Could you tell me which concentration at 4 h is on file for `Nc1nccn2c(C34CCC(CO)(CC3)OC4)nc(-c3ccc(C(F)(F)c4cccc(Cl)c4F)cc3)c12` ?
715 ng/mL

Any idea what its concentration at 4 h is? The compound is `Nc1nccn2c(C34CCC(CO)(CC3)OC4)nc(-c3ccc(C(F)(F)c4cccc(F)c4Cl)cc3)c12`
373 ng/mL

###

PROTOCOL: Blood-brain barrier permeability test, oral, SD rats
Assay type: in vivo
EXPERIMENTAL_CONDITIONS: rat, brain, oral 10 mg/kg single dose, time point 2 h, read-out: Drug concentration in brain tissue
MEASUREMENT_KIND: concentration at 2 h (ng/g)
Report the value in ng/g with no unit label.

| MOLECULE | concentration at 2 h, ng/g |
| --- | --- |
| Nc1nccn2c(C34CCC(CO)(CC3)OC4)nc(-c3ccc(C(F)(F)c4ccccc4Cl)cc3)c12 | 1860 |
| Nc1nccn2c(C3CCC(CO)OC3)nc(-c3ccc(C(F)(F)c4ccccc4)cc3)c12 (single isomer, unassigned) [Example 111-P1] | 1070 |
| Nc1nccn2c(C34CCC(CO)(CC3)OC4)nc(-c3ccc(C(F)(F)c4cccc(Cl)c4F)cc3)c12 | 378 |
| CC#CC(=O)N1CC[C@@H](n2c(=O)n(-c3ccc(Oc4ccccc4)cc3)c3c(N)ncnc32)C1 [Tirabrutinib, reference compound] | 31.1 |
| Cc1cc(Nc2ncnc3ccc(NC4=NC(C)(C)CO4)cc23)ccc1Oc1ccn2ncnc2c1 [Tucatinib, reference compound] | 29.5 |

Now look at this entry.
Given the molecule `Nc1nccn2c(C34CCC(CO)(CC3)OC4)nc(-c3ccc(C(F)(F)c4ccccc4)cc3)c12` , what is its reported concentration at 2 h?
1170

###

PROTOCOL: Pharmacokinetic test, oral, SD rats
Assay type: in vivo
EXPERIMENTAL_CONDITIONS: rat, plasma, oral 10 mg/kg
MEASUREMENT_KIND: Cmax (ng/mL)
The figure you give is taken to be in ng/mL; do not add the unit.

# get_value(readout='Cmax', item= `Nc1nccn2c(C34CCC(CO)(CC3)OC4)nc(-c3ccc(C(F)(F)c4ccccc4F)cc3)c12` )
1550

###

Collected microsomal CLint values appear next to each entry.
PROTOCOL: Liver microsome metabolic stability test (human)
Assay type: in vitro ADME
EXPERIMENTAL_CONDITIONS: liver microsomes, read-out: CLint (μL/min/mg) Human
The figure you give is taken to be in µL/min/mg; do not add the unit.

| COMPOUND | RESULT_UNITS | microsomal CLint |
| --- | --- | --- |
| COc1cccc(Oc2ccc(-c3nc(C4CCC(CO)OC4)n4c(Cl)cnc(N)c34)cc2)c1F (stereo not drawn) | µL/min/mg | 124 |
| COc1cccc(Oc2ccc(-c3nc(C4CCC(CO)OC4)n4ccnc(N)c34)cc2)c1F (stereo not drawn) | µL/min/mg | 38.8 |
| Nc1nccn2c(C34CCC(CO)(CC3)OC4)nc(-c3ccc(C(F)(F)c4ccccc4)cc3)c12 | µL/min/mg | 14.6 |
| Nc1nccn2c(C34CCC(CO)(CC3)OC4)nc(-c3ccc(C(F)(F)c4ccccc4Cl)cc3)c12 | µL/min/mg | 41.7 |
| Nc1nccn2c(C3CCC(CO)OC3)nc(-c3ccc(Oc4c(F)cccc4F)cc3)c12 (stereo not drawn) | µL/min/mg | 36.8 |
| Nc1nccn2c(C3CCC(CO)OC3)nc(-c3ccc(Oc4cccc(F)c4F)cc3)c12 (stereo not drawn) | µL/min/mg | 33.9 |
| Nc1nccn2c(C3CCC(CO)OC3)nc(-c3ccc(C(F)(F)c4ccccc4)cc3)c12 (stereo not drawn) | µL/min/mg | 10.9 |

Now take the following compound into account.
Requested read-out: microsomal CLint. Entry: Cc1cc(Nc2ncnc3ccc(NC4=NC(C)(C)CO4)cc23)ccc1Oc1ccn2ncnc2c1 [Tucatinib, reference compound]
43.7

###

PROTOCOL: Liver microsome metabolic stability test (rat)
Format: in vitro ADME
EXPERIMENTAL_CONDITIONS: liver microsomes, read-out: CLint (μL/min/mg) Rat
Each entry below carries its recorded microsomal CLint.
Numeric answer only, unit µL/min/mg assumed.

Please review the entries below; each comes with its answer.
| COMPOUND | RESULT_UNITS | OBSERVED_MEASUREMENT |
| --- | --- | --- |
| Nc1nccn2c(C34CCC(CO)(CC3)OC4)nc(-c3ccc(C(F)(F)c4cccc(Cl)c4F)cc3)c12 | µL/min/mg | 102 |
| Nc1nccn2c(C3CCC(CO)OC3)nc(-c3ccc(Oc4cccc(C(F)(F)F)c4F)cc3)c12 (stereo not shown) | µL/min/mg | 83.1 |
| Cc1cc(Nc2ncnc3ccc(NC4=NC(C)(C)CO4)cc23)ccc1Oc1ccn2ncnc2c1 [Tucatinib, reference compound] | µL/min/mg | 34.9 |

Return reported microsomal CLint; argument: CC#CC(=O)N1CC[C@@H](n2c(=O)n(-c3ccc(Oc4ccccc4)cc3)c3c(N)ncnc32)C1 [Tirabrutinib, reference compound]
32.9

###

PROTOCOL: Liver microsome metabolic stability test (rat)
Format: in vitro ADME
EXPERIMENTAL_CONDITIONS: liver microsomes, read-out: CLint (μL/min/mg) Rat
MEASUREMENT_KIND: microsomal CLint

| COMPOUND | OBSERVED_MEASUREMENT |
| --- | --- |
| N#Cc1ccnc(NC(=O)c2ccc(-c3nc(C4CCC(CO)OC4)n4ccnc(N)c34)cc2)c1 (stereo not drawn) | < 9.6 µL/min/mg |
| O=C(c1ccc(Oc2ccccc2)cc1Cl)c1c[nH]c2ncnc(N[C@@H]3CC[C@@H](CO)OC3)c12 [ARQ-531, reference compound] | < 9.6 µL/min/mg |

Let us move to another entry and its microsomal CLint.
If you can, please state the reported microsomal CLint value of `Nc1nccn2c(C34CCC(CO)(CC3)OC4)nc(-c3ccc(C(=O)Nc4ccccn4)cc3)c12` .
< 9.6 µL/min/mg
